B1: Ankyrin repeat and SOCS box protein 14, residues 532 to 572; numbered along this chain, A6NK59 (parent)
chain: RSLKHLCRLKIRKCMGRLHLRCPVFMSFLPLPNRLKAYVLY

Variants of: B1
assay overview: abundance fitness (aPCA) (normalised: wild type 0, dead -1); higher = more abundant; growth selection in yeast, the domain comes from the species named
run parameters: Homo sapiens
Record Y whenever abundance fitness is at -0.1 or higher; record N when lower.

Worked examples, 8 variants total:
[[record]]
residue_sequence = "RSLKHLCRLKIRKCMGRLHLRCPVFMSFLDLPNRLKAYVLY"
class_label = "Y"

[[record]]
residue_sequence = "RSLSHLCRLKIRKCMGRLHLRCPVFMSFLPLPNRLKAYVLY"
class_label = "N"

[[record]]
residue_sequence = "RSLKHLCRLKIRKCMGRLHLRCPVFMSFLPLPNRLKACVLY"
class_label = "N"

[[record]]
residue_sequence = "RSLKHLCRLKIRKCMGRLHLRCPVFMSFLPLPNRCKAYVLY"
class_label = "N"

[[record]]
residue_sequence = "RSLKHLCRLKIRKCMGRLHKRCPVFMSFLPLPNRLKAYVLY"
class_label = "Y"

[[record]]
residue_sequence = "RSLKHLCRLKIRKCMGRLHLRCRVFMSFLPLPNRLKAYVLY"
class_label = "Y"

[[record]]
residue_sequence = "RSLKHLGRLKIRKCMGRLHLRCPVFMSFLPLPNRLKAYVLY"
class_label = "N"

[[record]]
residue_sequence = "RSLKHLCRLKIRKCMGRLHLRCPVFMSFMPLPNRLKAYVLY"
class_label = "N"


Dear colleague, could you confirm whether `RSLKHLCRLKIRKCMRRLHLRCPVFMSFLPLPNRLKAYVLY` has abundance fitness at or above -0.1? Y

Next: `RSLKHLCRLKIRKCMGRLHLRCPVFMSFLPLPNREKAYVLY` N

Please give the result for `RKLKHLCRLKIRKCMGRLHLRCPVFMSFLPLPNRLKAYVLY` too. Y

`FSLKHLCRLKIRKCMGRLHLRCPVFMSFLPLPNRLKAYVLY` ? Y

Moving on to the next variant: `RSLKHLCRLKIRKCCGRLHLRCPVFMSFLPLPNRLKAYVLY` N

Now try `RSLKHLCREKIRKCMGRLHLRCPVFMSFLPLPNRLKAYVLY` . Y

Queued: `RSLKHLCRLKIRKCMGRLHLRCPVFMSFLPLPNRLKSYVLY` N
